Measured Ratio (variant antibody KD/burosumab KD), listed per entry.
Target: T1, recombinant human FGF23 (R179Q) (human, UniProt Q9GZV9 25-251)
T1 construct: also called rhFGF23(R179Q); hFGF23(R179Q)
T1 sequence (looked up): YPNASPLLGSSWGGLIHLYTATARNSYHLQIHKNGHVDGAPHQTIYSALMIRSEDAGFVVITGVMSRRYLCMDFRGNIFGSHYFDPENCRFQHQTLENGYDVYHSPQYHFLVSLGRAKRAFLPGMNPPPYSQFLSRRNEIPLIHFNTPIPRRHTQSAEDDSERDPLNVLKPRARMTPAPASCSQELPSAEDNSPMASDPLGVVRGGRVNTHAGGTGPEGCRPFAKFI
Experiment: SPR, antibody captured on hIgG chip, rhFGF23(R179Q) analyte
Give the value as a plain number.

Consider the reported Ratio (variant antibody KD/burosumab KD) for these binders:
>>> value_observed("UGX144 (antibody, human IgG1, kappa, V domains shown, also called LC:Y94D; Y94D) VH: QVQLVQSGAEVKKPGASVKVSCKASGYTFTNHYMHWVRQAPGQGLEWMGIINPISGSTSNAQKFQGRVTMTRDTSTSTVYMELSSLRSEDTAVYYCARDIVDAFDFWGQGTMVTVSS VL: AIQLTQSPSSLSASVGDRVTITCRASQGISSALVWYQQKPGKAPKLLIYDASSLESGVPSRFSGSGSGTDFTLTISSLQPEDFATYYCQQFNDDFTFGPGTKVDIKR")
4
>>> value_observed("UGX202 (antibody, human IgG1, kappa, V domains shown, also called HC:S59E, LC:N92Y; S59E/N92Y) VH: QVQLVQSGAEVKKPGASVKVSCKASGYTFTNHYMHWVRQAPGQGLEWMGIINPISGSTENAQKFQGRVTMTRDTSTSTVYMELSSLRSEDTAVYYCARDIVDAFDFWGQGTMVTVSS VL: AIQLTQSPSSLSASVGDRVTITCRASQGISSALVWYQQKPGKAPKLLIYDASSLESGVPSRFSGSGSGTDFTLTISSLQPEDFATYYCQQFYDYFTFGPGTKVDIKR")
3

From here, focus on the item given below.
## Input For UGX205 (antibody, human IgG1, kappa, V domains shown, also called HC:S59E, LC:Y94D; S59E/Y94D) VH: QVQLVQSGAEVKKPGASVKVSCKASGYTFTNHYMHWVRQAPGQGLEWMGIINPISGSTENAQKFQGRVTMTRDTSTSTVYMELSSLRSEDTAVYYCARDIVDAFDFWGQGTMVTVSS VL: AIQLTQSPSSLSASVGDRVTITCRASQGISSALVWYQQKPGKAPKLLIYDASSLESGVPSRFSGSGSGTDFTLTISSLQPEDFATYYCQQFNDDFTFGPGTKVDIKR , what is its reported Ratio (variant antibody KD/burosumab KD)?
## Output 5
